Hey, just so you know, these numbers are from patent US20170362324A1.

- assay.target: T1, human soluble αvβ5 protein (extracellular domains of human αv and β5 integrin subunits) (human, UniProt P06756 31-992; P18084 24-719)
- T1 construct: also called biotin-αvβ5; hsαvβ5
- T1 sequence (P06756 31-992 limits assumed, chain 1 of 2): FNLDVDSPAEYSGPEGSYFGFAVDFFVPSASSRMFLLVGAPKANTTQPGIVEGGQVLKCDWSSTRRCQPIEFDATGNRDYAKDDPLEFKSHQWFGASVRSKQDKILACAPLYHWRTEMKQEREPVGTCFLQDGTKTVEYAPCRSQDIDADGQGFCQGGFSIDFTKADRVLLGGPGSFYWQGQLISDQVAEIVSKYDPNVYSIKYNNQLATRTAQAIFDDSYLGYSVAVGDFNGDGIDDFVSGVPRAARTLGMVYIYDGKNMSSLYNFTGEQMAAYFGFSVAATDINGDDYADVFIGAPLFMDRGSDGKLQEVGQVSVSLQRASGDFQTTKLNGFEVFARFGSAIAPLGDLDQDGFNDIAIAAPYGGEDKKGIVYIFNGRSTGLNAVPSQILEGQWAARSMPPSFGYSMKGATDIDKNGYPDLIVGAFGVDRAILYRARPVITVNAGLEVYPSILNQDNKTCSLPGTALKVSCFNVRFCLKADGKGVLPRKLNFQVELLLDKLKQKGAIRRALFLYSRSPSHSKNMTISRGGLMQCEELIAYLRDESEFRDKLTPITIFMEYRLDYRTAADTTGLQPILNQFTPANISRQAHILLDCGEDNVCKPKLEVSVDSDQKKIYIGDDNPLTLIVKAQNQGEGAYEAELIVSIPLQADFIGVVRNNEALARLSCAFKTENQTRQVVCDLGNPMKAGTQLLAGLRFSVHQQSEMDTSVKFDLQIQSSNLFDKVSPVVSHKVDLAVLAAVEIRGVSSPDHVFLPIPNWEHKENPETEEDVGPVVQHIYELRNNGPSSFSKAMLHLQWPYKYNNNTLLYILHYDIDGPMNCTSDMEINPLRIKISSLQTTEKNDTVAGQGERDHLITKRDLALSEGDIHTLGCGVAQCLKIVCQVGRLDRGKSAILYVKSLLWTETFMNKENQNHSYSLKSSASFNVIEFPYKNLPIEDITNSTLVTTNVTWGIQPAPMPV
- T1 sequence (P18084 24-719 limits assumed, chain 2 of 2): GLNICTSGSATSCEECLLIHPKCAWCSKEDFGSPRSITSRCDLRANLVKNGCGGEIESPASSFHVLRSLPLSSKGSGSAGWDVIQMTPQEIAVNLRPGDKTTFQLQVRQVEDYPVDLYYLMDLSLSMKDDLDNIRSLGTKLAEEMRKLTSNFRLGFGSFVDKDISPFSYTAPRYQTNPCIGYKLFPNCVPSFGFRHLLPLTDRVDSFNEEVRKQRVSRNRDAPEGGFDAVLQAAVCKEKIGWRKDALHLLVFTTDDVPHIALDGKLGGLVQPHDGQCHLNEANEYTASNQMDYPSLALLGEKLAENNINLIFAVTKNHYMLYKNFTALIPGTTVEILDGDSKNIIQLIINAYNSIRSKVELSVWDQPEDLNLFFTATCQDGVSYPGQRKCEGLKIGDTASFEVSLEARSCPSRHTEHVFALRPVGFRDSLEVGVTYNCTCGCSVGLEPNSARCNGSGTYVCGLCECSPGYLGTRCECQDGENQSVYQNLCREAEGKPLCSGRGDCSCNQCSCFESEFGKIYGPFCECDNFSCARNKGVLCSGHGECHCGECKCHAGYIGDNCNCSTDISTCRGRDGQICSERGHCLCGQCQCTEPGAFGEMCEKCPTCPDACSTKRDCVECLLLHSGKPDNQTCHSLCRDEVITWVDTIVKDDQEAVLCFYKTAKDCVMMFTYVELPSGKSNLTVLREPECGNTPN
- assay.protocol: αvβ5-vitronectin blocking ELISA
- Method: Vitronectin Inhibition ELISA: 96-well microtiter plates were coated with 5 μg/ml purified human plasma vitronectin diluted in PBS (50 μl/well) at 4° C. overnight. After the coating solution was removed, the plates were blocked with 300 μl/well of 1% BSA/TBS at 25° C. for 1 hr. […] Bound protein was detected using the TMB substrate and indicated by the absorbency measured at 450 nm. […]
outcome.measure: IC50 (nM)
Give the value, in units of nM, as a plain number.

Q. I'd like to know its IC50. The binder in question is VH2/VL2 Agly-IgG4.P (S228P)/IgG1 (N297Q) (antibody, V domains shown, also called VH2/VL2 (Agly-IgG4P/G1); H2/L2) VH: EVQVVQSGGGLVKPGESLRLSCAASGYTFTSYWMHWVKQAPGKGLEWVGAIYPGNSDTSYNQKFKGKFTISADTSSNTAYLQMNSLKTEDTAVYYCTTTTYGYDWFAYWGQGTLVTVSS VL: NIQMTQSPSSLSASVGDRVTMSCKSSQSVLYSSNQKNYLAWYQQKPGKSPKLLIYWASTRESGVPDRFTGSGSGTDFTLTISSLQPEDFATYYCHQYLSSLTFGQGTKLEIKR
A. 1.74
